A collection of compounds and their measured inhibition at 50 µM
biological target: cathepsin X (Homo sapiens); experiment: Determination of relative inhibition of cathepsin X; format: biochemical; parameters: made in house; host or cells: Pichia pastoris; settings: screening at 50 μM compound; read-out: relative inhibition of cathepsin X
Sequence (Q9UBR2 62-303): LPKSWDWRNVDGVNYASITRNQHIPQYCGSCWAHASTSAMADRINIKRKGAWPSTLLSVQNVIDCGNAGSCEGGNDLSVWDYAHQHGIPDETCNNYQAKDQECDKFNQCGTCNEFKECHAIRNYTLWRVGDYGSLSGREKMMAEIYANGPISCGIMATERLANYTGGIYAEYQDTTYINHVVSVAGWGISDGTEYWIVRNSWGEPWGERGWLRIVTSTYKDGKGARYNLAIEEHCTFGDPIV

// below: answered compounds
# compound, value reported
records = [
    ("Cc1ccccc1-n1cnnc1SCC(=O)c1ccc2c(c1)OCCO2 [Compound 20]", "> 70%"),
    ("O=C(CSc1nnc(N2CCCC2)n1C1CC1)c1ccc2c(c1)OCCO2 [Compound 14]", "> 70%"),
]

Reported inhibition at 50 µM, compound Cc1[nH]c2ccccc2c1C(=O)CSc1n[nH]c(N)n1 [Compound 1] : ____
60 to 75%

Reported inhibition at 50 µM, compound N#Cc1c(NC(=O)c2cc(OCCCN)ccc2Cl)sc2c1CCCC2 [Compound 4] : ____
60 to 75%

Reported inhibition at 50 µM, compound Cn1cnc(SCC(=O)c2ccc3c(c2)OCCO3)n1 [Compound 12] : ____
> 70%
